Exercise: state measured folding enthalpy for each of the sequences provided.
- assay: folding enthalpy; higher = less favourable; fluorescence melt of hairpins on a sequencing array, two-state fit
- particulars: sodium 0.088 M
The answer is to be given in kJ/mol; state only the numeric part.

Quick check: folding enthalpy of ACTAGGAAACTAGT (((((....))))) ?
-58.2

Then what about the sequence GGTGTCGAAAGACCGACC ((((((....)))..))) ?
-62.5

Then what about the sequence CGTCCGGAAACGGGACG ((((((....))).))) ?
-127

Then what about the sequence GATCCGGCTCGGATC ((((((...)))))) ?
-166

Then what about the sequence GATCAGTACTCTGATC ((((((....)))))) ?
-182

Then what about the sequence GCGGACACGAAAGTGCGC (((..(((....)))))) ?
-109

Then what about the sequence GCCTGGCGAAAGCCACGC ((.((((....)))).)) ?
-70.5

Then what about the sequence GTTTACGCGAAAGCGAAC (((..(((....)))))) ?
-38.1

Then what about the sequence GATCCTCGACAGGATC ((((((....)))))) ?
-149

Then what about the sequence GTATGCGAAAGCACTAC ((((((....))).))) ?
-55.1

Then what about the sequence GATACGGGAAACTGTATC (((((.(....).))))) ?
-155

Then what about the sequence GATCGTCGCACGATC ((((((...)))))) ?
-159

---

- assay: folding enthalpy; higher = less favourable; fluorescence melt of hairpins on a sequencing array, two-state fit
- particulars: sodium 0.088 M
Exercise: state measured folding enthalpy for each of the sequences provided.
Show the value, then the unit it is measured in.

Quick check: folding enthalpy of GGCAGGAAACTGCC (((((....))))) ?
-31.6 kcal/mol

Then what about the sequence GCCAATGGAAACATTAGC ((.((((....)))).)) ?
-17.4 kcal/mol

Then what about the sequence CGACAACGGAAACGTTCG (((..(((....)))))) ?
-14.3 kcal/mol

Then what about the sequence CGGGACGGAAACGTCCG (((.(((....)))))) ?
-12.9 kcal/mol

Then what about the sequence GAACTTGGAAACAAGCTC ((.((((....)))).)) ?
-27.1 kcal/mol

Then what about the sequence GGGATAGGAAACTATTCC ((.((((....)))).)) ?
-34.3 kcal/mol

---

- assay: folding enthalpy; higher = less favourable; fluorescence melt of hairpins on a sequencing array, two-state fit
- particulars: sodium 0.088 M
Exercise: state measured folding enthalpy for each of the sequences provided.
The answer is to be given in kcal/mol; state only the numeric part.

Quick check: folding enthalpy of GACCTAGGAAACTGGGTC ((((.((....)).)))) ?
-35

Then what about the sequence GCGGTTCGAAAGAAACGC (((.(((....))).))) ?
-33.7

Then what about the sequence GCAGCGCGAAAGCCGTGC (((..((....))..))) ?
-15.3

Then what about the sequence GTAATGCGAAAGCACTAC (((.(((....))).))) ?
-19.9

Then what about the sequence GGCCGCGAAAGCGGAGCC ((((((....)))..))) ?
-13.4

Then what about the sequence GCCCGCGAAAGCGGAGGC ((((((....)))..))) ?
-13.7

Then what about the sequence GCTCATCGAAAGATTAGC (((.(((....))).))) ?
-34.5

Then what about the sequence GATCAGACACTGATC ((((((...)))))) ?
-47.1

Then what about the sequence GACCAGGGAAACCTGGCC (.(((((....))))).) ?
-15.2

Then what about the sequence GTGCATGGAAACGTGTAC ((.((.(....).)).)) ?
-17.6

Then what about the sequence GGGTTCCGAAAGGAGCCC (((.(((....))).))) ?
-39.8

Then what about the sequence GTTGGGGGAAACCCTGAC ((..(((....)))..)) ?
-23.8

Then what about the sequence GGATGTGGAAACACATCC (((((((....))))))) ?
-42.6

Then what about the sequence GCCGGCGCGAAAGCGGGC (((..(((....)))))) ?
-14.4

Then what about the sequence GTGTAGGGAAACCTATGC (..((((....))))..) ?
-12.2

Then what about the sequence GATCTGCGGCCAGATC ((((((....)))))) ?
-27.4

Then what about the sequence GATCGTGGAAACATGATC ((((.((....)).)))) ?
-43.8

Then what about the sequence GCGGGCGAAAGCCTCCGC ((((((....)))..))) ?
-25.8

Then what about the sequence GTTCCGGGAAACCGGAAC (((((((....))))))) ?
-30.1

Then what about the sequence GGCTGTACGAAAGTAGCC (((..(((....)))))) ?
-27.5

Then what about the sequence GTGACCCGAAAGGGCCAC (((.(((....))).))) ?
-41

Then what about the sequence GGCAATGGAAACATCGCC (((.(((....))).))) ?
-34.7

Then what about the sequence GTAGCCCGAAAGGGTAC (((.(((....)))))) ?
-17.7

Then what about the sequence GATCCACGAAAGTGATC (((.(((....)))))) ?
-21.4

Then what about the sequence GTAAGGGGAAACCCCTAC (((.(((....))).))) ?
-16.9

---

Exercise: state measured Tm for each of the sequences provided.
- assay: melting temperature; fluorescence melt of hairpins on a sequencing array, two-state fit, raised by 9.35 °C to match UV melts
- particulars: sodium 0.088 M
The answer is to be given in °C; state only the numeric part.

Quick check: Tm of GATCTTGCCTAAGATC ((((((....)))))) ?
48.2

Then what about the sequence GATCACCTAGTGATC ((((((...)))))) ?
58.2

Then what about the sequence GCTATAGCGAAAGCTAGC (((..(((....)))))) ?
44.6

Then what about the sequence CGGTGGAAACACCG (((((....))))) ?
68

Then what about the sequence GTCCTGGGAAACTGGGAC ((((..(....)..)))) ?
44.8

Then what about the sequence GATCACCTCCGTGATC ((((((....)))))) ?
55

Then what about the sequence GATCATAAAATGATC ((((((...)))))) ?
48

Then what about the sequence GGTTTGCGAAAGCACACC (((.(((....))).))) ?
51.7

Then what about the sequence GACTTCCCGAAAGGGGTC (((..(((....)))))) ?
34

Then what about the sequence GCATTGCGAAAGCGCTGC (((..((....))..))) ?
45.7

Then what about the sequence GTCTATGGAAACATAGAC (((((((....))))))) ?
54.9

Then what about the sequence GGTCGAGAAATCGACC ((((((....)))))) ?
66.2

Then what about the sequence GATGCCCGAAAGGGATC (((.(((....)))))) ?
45

Then what about the sequence GATCCTCCTCAGGATC ((((((....)))))) ?
50.2

Then what about the sequence GATCATTTACATGATC ((((((....)))))) ?
46.3

Then what about the sequence GTACACGAAAGTGATTAC ((((((....)))..))) ?
27.4

Then what about the sequence GCTCGGCGAAAGCCGCGC ((.((((....)))).)) ?
65.1

Then what about the sequence GGATGGGGAAACTCATCC (((((.(....).))))) ?
49.2

Then what about the sequence GCACAGCGAAAGCTAAGC ((..(((....)))..)) ?
40.4

Then what about the sequence TCTCAGAAATGAGA (((((....))))) ?
31.1

Then what about the sequence GCATGAGGAAACTTGTGC (((..((....))..))) ?
35.9

Then what about the sequence GATCACGCGGTGATC ((((((...)))))) ?
59.2

Then what about the sequence GATCATTGGTATGATC ((((((....)))))) ?
46.3

Then what about the sequence GCTAAAACGAAAGTTAGC (((..(((....)))))) ?
40.1

Then what about the sequence GGTCGTGGAAACACGATC (.(((((....))))).) ?
54

Then what about the sequence GTACTCACGAAAGTGTAC (((..(((....)))))) ?
31.9

---

Exercise: state measured Tm for each of the sequences provided.
- assay: melting temperature; fluorescence melt of hairpins on a sequencing array, two-state fit, raised by 9.35 °C to match UV melts
- particulars: sodium 0.088 M
The answer is to be given in °C; state only the numeric part.

Quick check: Tm of GTATGCGAAAGCACTAC ((((((....))).))) ?
37.3

Then what about the sequence GCACTCGAAAGAGGATGC ((((((....)))..))) ?
40.1

Then what about the sequence TGAGTGAAAACTCA (((((....))))) ?
42.4

Then what about the sequence GGCATCGAAAGATGCGCC ((((((....)))..))) ?
57.3

Then what about the sequence GATAGAGGAAACTCTGTC ((.((((....)))).)) ?
38

Then what about the sequence GATCGCCTGCGCGATC ((((((....)))))) ?
67.2

Then what about the sequence GGTATTGAAAAATACC ((((((....)))))) ?
49

Then what about the sequence GCCCGGCGAAAGCGGAGC ((.(.((....)).).)) ?
54.8

Then what about the sequence GGAAACGAAAGTTTGTCC ((((((....)))..))) ?
27.4

Then what about the sequence GTGTTAGGAAACTAGCAC (((.(((....))).))) ?
42.9

Then what about the sequence GTTCGAGGAAACTCAAAC (((.(((....))).))) ?
31

Then what about the sequence GCCCCTCCGAAAGGAGGC (((..(((....)))))) ?
39.8

Then what about the sequence GCGCCCGAAAGGGTACGC ((((((....)))..))) ?
55.1

Then what about the sequence GTTCTTGGAAACAGGAAC ((((.((....)).)))) ?
39.9

Then what about the sequence GTATACGAAAGTACTAC ((((((....))).))) ?
27.6

Then what about the sequence GTGTACCGAAAGGTCCAC (((.(((....))).))) ?
48.1

Then what about the sequence GGTCCCGAAAGGGAAACC ((((((....)))..))) ?
43.2

Then what about the sequence GATCCACCCATGGATC ((((((....)))))) ?
50.7

Then what about the sequence GCGTATCGAAAGATCGC (((.(((....)))))) ?
55.6

Then what about the sequence GTAGCGGGAAACCGTTAC (((.(((....))).))) ?
47.8

Then what about the sequence GATCGGGGGCCCGATC ((((((....)))))) ?
59.7

Then what about the sequence GATTACCGAAAGGTGATC (((.(((....))).))) ?
51.8

Then what about the sequence GATCCACATTTGGATC ((((((....)))))) ?
50.7

Then what about the sequence GCATGGCGAAAGCAAGGC ((.(.((....)).).)) ?
49.5

Then what about the sequence GATAGCGAAAGCTATATC ((((((....)))..))) ?
46.6
